# TESTED_TARGET: T1, human PRLR ECD-Fc fusion protein (human, UniProt P16471 25-233)
# T1 construct: not shown: Fc region (captured by goat anti-human Fc)
# T1 sequence: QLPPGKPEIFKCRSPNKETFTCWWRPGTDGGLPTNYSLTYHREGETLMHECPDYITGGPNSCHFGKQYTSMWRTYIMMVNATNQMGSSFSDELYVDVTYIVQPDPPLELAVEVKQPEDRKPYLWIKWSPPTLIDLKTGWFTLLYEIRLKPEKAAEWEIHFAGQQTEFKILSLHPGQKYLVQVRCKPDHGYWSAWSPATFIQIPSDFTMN
# PROCEDURE_DETAILS: ELISA on ECD
ASSAY_ENDPOINT: EC50 (nM)
Give bare numbers, in nM.

**Q:** Input chAb8 (antibody, human IgG1, kappa, V domains shown, chimeric, murine variable and human G1/kappa constant regions) VH: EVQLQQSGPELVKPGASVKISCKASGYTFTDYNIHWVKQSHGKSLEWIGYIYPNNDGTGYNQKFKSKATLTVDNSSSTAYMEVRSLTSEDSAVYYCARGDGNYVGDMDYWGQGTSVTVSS VL: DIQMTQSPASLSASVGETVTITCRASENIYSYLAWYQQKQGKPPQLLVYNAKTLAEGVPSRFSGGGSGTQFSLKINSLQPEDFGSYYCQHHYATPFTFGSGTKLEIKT , output reported EC50.
**A:** 0.08

Now look at this entry.
**Q:** Input Ab9 (antibody, V domains shown, murine monoclonal, isotype G2b; also called murine Ab9) VH: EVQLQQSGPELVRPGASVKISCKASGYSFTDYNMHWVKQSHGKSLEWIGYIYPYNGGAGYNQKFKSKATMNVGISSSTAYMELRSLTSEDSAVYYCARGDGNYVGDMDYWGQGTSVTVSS VL: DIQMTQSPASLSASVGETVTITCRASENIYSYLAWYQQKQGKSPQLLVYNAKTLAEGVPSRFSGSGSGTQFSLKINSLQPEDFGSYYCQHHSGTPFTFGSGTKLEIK , output reported EC50.
**A:** 0.072
